Value source: patent US10722520B2

Target: OXA-1 (Escherichia coli)
Conditions: read-out: IC50 β-lactamase OXA-1; class (D); nitrocefin 200 μM, 30-min pre-incubation, enzyme 0.2 nM
OBSERVED_PROPERTY: IC50 (nM)
Enter your answer as a number in nM; do not include the unit.

Query: So what does the record say about IC50 for CN(C)C.NC(=O)CCc1nccn1C1=CC2CN(C1)C(=O)N2OS(=O)(=O)O (stereo not drawn) [Example 73] ?
Response: 44

Query: Need IC50, item O=C(O)C(F)(F)F.O=C1N2CC(n3ccc(CNc4nccs4)n3)=CC(C2)N1OS(=O)(=O)[O-].[Na+] (stereo not drawn) [Example 35]
Response: 130

Query: I have this compound here, CN(C)Cc1cn(C2=CC3CN(C2)C(=O)N3OS(=O)(=O)[O-])nn1.[Na+] (stereo not drawn) [Example 59] , and I need its recorded IC50.
Response: 210
